Biological target: T1, human TL1A (human, UniProt O95150 72-251)
T1 construct: Antigen in SPR and ELISA; Also used here for places that print only 'TL1A' and for endogenous TL1A in human whole blood; also called TNFSF15
T1 sequence (looked up): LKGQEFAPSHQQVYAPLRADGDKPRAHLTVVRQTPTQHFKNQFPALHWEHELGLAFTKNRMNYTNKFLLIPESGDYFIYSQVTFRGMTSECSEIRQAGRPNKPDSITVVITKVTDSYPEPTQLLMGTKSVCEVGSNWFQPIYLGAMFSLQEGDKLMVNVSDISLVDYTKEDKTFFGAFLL
Assay: SPR, Fab lysate, average
Reported Kd values are given for each entry in this list.
Please reply with the bare figure in nM and do not write the unit itself.

In the examples that follow, each entry is paired with its recorded Kd.
{"columns": ["Binder", "Kd, nM"],
 "data": [
  ["Antibody 8 (Fab format) (Fab, V domains shown, High priority lead, Fab format) VH: QVQLQESGPGLVRPSQTLSLTCTVSGFDMQSTYMHWVRQRPGRGLEWMGRIEPAGGHTKYNPSLKSRVTITRDTSKNQVSLRLSSVTAADTAVYYCVRSGGLPDVWGQGSLVTVSS VL: DIQMTQSPSSLSASVGDRVTITCRASSSVSYMYWYQQKPGKAPKLLIYGASNLASGVPSRFSGSGSGTDFTFTISSLQPEDIATYYCQQWEGNPRTFGQGTKVEIK", 0.38],
  ["Antibody 18 (Fab format) (Fab, V domains shown, High priority lead, Fab format) VH: QVQLQESGPGLVRPSQTLSLTCTVSGFDMGDTYMHWVRQRPGRGLEWMGRIEPAGGHTKYNPSLKSRVTITRDTSKNQVSLRLSSVTAADTAVYYCVRSGGMPDVWGQGSLVTVSS VL: DIQMTQSPSSLSASVGDRVTITCRASSSVSYMYWYQQKPGKAPKLLIYYASNLASGVPSRFSGSGSGTDFTFTISSLQPEDIATYYCQQWEGNPRTFGQGTKVEIK", 0.67],
  ["Antibody 11 (Fab format) (Fab, V domains shown, High priority lead, Fab format) VH: QVQLQESGPGLVRPSQTLSLTCTVSGFDMGDTYMHWVRQRPGRGLEWMGRIEPAGGHTKYNPSLKSRVTITRDTSKNQVSLRLSSVTAADTAVYYCVRSGGMPDVWGQGSLVTVSS VL: DIQMTQSPSSLSASVGDRVTITCRASQGVEYMYWYQQKPGKAPKLLIYSASNLASGVPSRFSGSGSGTDFTFTISSLQPEDIATYYCQQWEGNPRTFGQGTKVEIK", 0.48],
  ["Antibody 4 (Fab format) (Fab, V domains shown, High priority lead, Fab format) VH: QVQLQESGPGLVRPSQTLSLTCTVSGFDMADTYMHWVRQRPGRGLEWMGRIEPAGGHTKYNPSLKSRVTITRDTSKNQVSLRLSSVTAADTAVYYCVRSGGLPDMWGQGSLVTVSS VL: DIQMTQSPSSLSASVGDRVTITCRASSSVSYMYWYQQKPGKAPKLLIYGASNLASGVPSRFSGSGSGTDFTFTISSLQPEDIATYYCQQWEGNPRTFGQGTKVEIK", 0.33]
]}

Let's switch to this binder now.
Request: Requested read-out: Kd. Entry: Antibody 3 (Fab format) (Fab, V domains shown, High priority lead, Fab format) VH: QVQLQESGPGLVRPSQTLSLTCTVSGFDIQDTYMHWVRQRPGRGLEWMGRIEPAGGHTKYNPSLKSRVTITRDTSKNQVSLRLSSVTAADTAVYYCVRSGGLPDAWGQGSLVTVSS VL: DIQMTQSPSSLSASVGDRVTITCRASQGVRYMYWYQQKPGKAPKLLIYGASNLASGVPSRFSGSGSGTDFTFTISSLQPEDIATYYCQQWEGNPRTFGQGTKVEIK
Response: 0.31
